Origin of values: ChEMBL document CHEMBL2346656

Parameter: Ratio CC50/IC50. Scope: all listed entries.
test: Selectivity index, ratio of CC50 for human HepG2(2.2.15) cells to IC50 for Hepatitis B virus infected in human HepG2.2.15 cells assessed as HBeAg secretion inhibition assay; format: functional
When you answer, write just the number.

| compound | Ratio CC50/IC50 |
| --- | --- |
| C=CCc1ccc(Oc2cc(CC=C)ccc2O)cc1 [ISOMAGNOLOL] | 22.14 |
| C=CCc1ccc(O)c(-c2cc([C@H]3O[C@H](c4ccc(O)c(-c5cc(CC=C)ccc5O)c4)[C@@H](C)O[C@@H]3C)ccc2O)c1 [STREBLUSLIGNANOL F] | 3.17 |
| C=CCc1ccc(O)c(-c2cc(C=O)ccc2O)c1 [MAGNALDEHYDE] | 4.83 |
| C=CCc1ccc(O)c(-c2cc([C@@H](O)[C@@H](C)O)ccc2O)c1 [STREBLUSLIGNANOL] | 1.36 |
| COc1cc([C@H]2c3cc(O)c(OC)cc3C[C@@H](CO)[C@@H]2CO)ccc1O [ISOLARICIRESINOL] | 8.82 |
| C=CCc1ccc(Oc2ccc(/C=C/C=O)cc2)c(O)c1 [ISOSTREBLUSLIGNANALDEHYDE] | 19.11 |

Value lookup for Ratio CC50/IC50; key = C=CCc1ccc2c(c1)-c1cc([C@@H](O)[C@H](C)O)ccc1Oc1ccc(CC=C)cc1-c1cc([C@@H](O)[C@H](C)O)ccc1O2
36.52

Value lookup for Ratio CC50/IC50; key = Nc1ccn([C@@H]2CS[C@H](CO)O2)c(=O)n1 [LAMIVUDINE]
2.22

Value lookup for Ratio CC50/IC50; key = COc1cc(C2c3cc(O)c(OC)cc3C[C@@H](CO)[C@@H]2CO[C@@H]2OC[C@@H](O)[C@H](O)[C@H]2O)ccc1O (some centres not stated)
7.87

Value lookup for Ratio CC50/IC50; key = C=CCc1ccc(O)c(-c2cc(O)ccc2O)c1 [RANDAIOL]
6.63

Value lookup for Ratio CC50/IC50; key = C=CCc1ccc(O)c(-c2cc(CC=C)ccc2O)c1 [MAGNOLOL]
16.94

Value lookup for Ratio CC50/IC50; key = C=CCc1ccc(Oc2ccc(C=O)cc2O)cc1 [ISOMAGNALDEHYDE]
2.14

---

assay: Cytotoxicity against human HepG2(2.2.15) cells after 12 days by MTT assay; format: cell-based
Please use label 1 for CC50 at 288 h under 200 µM and label 0 for everything else, ties included.

Examples from the recorded data:
| molecule | class_assignment |
| --- | --- |
| Nc1ccn([C@@H]2CS[C@H](CO)O2)c(=O)n1 | label 0 |
| C=CCc1ccc2c(c1)-c1cc([C@@H](O)[C@H](C)O)ccc1Oc1ccc(CC=C)cc1-c1cc([C@@H](O)[C@H](C)O)ccc1O2 | label 1 |
| C=CCc1ccc(O[C@@H]2O[C@H](CO)[C@@H](O)[C@H](O)[C@H]2O)c(-c2cc(C[C@@H](O)CO)ccc2O)c1 | label 1 |
| COc1cc([C@H]2Oc3c(OC)cc(CCCO)cc3[C@@H]2CO)ccc1O [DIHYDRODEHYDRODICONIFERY ALCOHOL] | label 1 |

Please check: CC50 at 288 h for C=CCc1ccc(Oc2ccc(C=O)cc2O)cc1 , strictly under 200 µM or not?
label 1

---

tested on: Hepatitis B virus; test: Antiviral activity against Hepatitis B virus infected in human HepG2.2.15 cells assessed as inhibition of HBsAg secretion after 12 days by ELISA; format: functional, organism-based; settings: HepG2 2.2.15, 288 h
pIC50: −log10 of the molar value.
I would appreciate it if you labelled entries yes (1) when pIC50 is 5 or higher, otherwise no (0).

Examples from the recorded data:
| compound | class_assignment |
| --- | --- |
| COc1cc([C@H]2c3cc(O)c(OC)cc3C[C@@H](CO)[C@@H]2CO)ccc1O | yes (1) |
| C=CCc1ccc(O)c(-c2cc([C@H]3O[C@H](c4ccc(O)c(-c5cc(CC=C)ccc5O)c4)[C@@H](C)O[C@@H]3C)ccc2O)c1 | no (0) |
| COc1cc([C@H]2Oc3c(OC)cc(CCCO)cc3[C@@H]2CO)ccc1O [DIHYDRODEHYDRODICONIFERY ALCOHOL] | no (0) |

Check if pIC50 >= 5 (inclusive). Item: C=CCc1ccc2c(c1)-c1cc([C@@H](O)[C@H](C)O)ccc1Oc1ccc(CC=C)cc1-c1cc([C@@H](O)[C@H](C)O)ccc1O2
yes (1)

Check if pIC50 >= 5 (inclusive). Item: C=CCc1ccc(O)c(-c2cc(CC=C)ccc2O)c1
yes (1)

Check if pIC50 >= 5 (inclusive). Item: C=CCc1ccc(O)c(-c2cc([C@@H](O)[C@@H](C)O)ccc2O)c1
no (0)

Check if pIC50 >= 5 (inclusive). Item: C=CCc1ccc(O)c(-c2cc(O)ccc2O)c1
no (0)

Check if pIC50 >= 5 (inclusive). Item: C=CCc1ccc(Oc2ccc(C=O)cc2O)cc1
no (0)

Check if pIC50 >= 5 (inclusive). Item: COc1cc(C2c3cc(O)c(OC)cc3C[C@@H](CO)[C@@H]2CO[C@@H]2OC[C@@H](O)[C@H](O)[C@H]2O)ccc1O (stereo partly specified)
yes (1)

---

experiment: Cytotoxicity against human HepG2(2.2.15) cells after 12 days by MTT assay; type: cell-based
Please use true for CC50 at 288 h under 200 µM and false for everything else, ties included.

Examples from the recorded data:
| compound | class_assignment |
| --- | --- |
| C=CCc1ccc(O)c(-c2cc([C@H]3O[C@H](c4ccc(O)c(-c5cc(CC=C)ccc5O)c4)[C@@H](C)O[C@@H]3C)ccc2O)c1 | true |
| COc1cc(C2c3cc(O)c(OC)cc3C[C@@H](CO)[C@@H]2CO[C@@H]2OC[C@@H](O)[C@H](O)[C@H]2O)ccc1O (stereo partly drawn) | false |
| C=CCc1ccc(O)c(-c2cc(CC=C)ccc2O)c1 | true |

Please check: CC50 at 288 h for COc1cc([C@H]2c3cc(O)c(OC)cc3C[C@@H](CO)[C@@H]2CO)ccc1O , strictly under 200 µM or not?
true

Please check: CC50 at 288 h for C=CCc1ccc(Oc2cc(CC=C)cc(O)c2O)cc1 , strictly under 200 µM or not?
true

Please check: CC50 at 288 h for C=CCc1ccc(O)c(-c2cc(C[C@@H](O)CO)ccc2O)c1 , strictly under 200 µM or not?
true

---

tested on: Hepatitis B virus; test: Antiviral activity against Hepatitis B virus infected in human HepG2.2.15 cells assessed as inhibition of HBV DNA replication after 72 hrs by PCR analysis; assay type: functional, organism-based; details: HepG2 2.2.15, 72 h
outcome_measure: pIC50
When answering, recall that pIC50 equals minus log10 of the concentration in mol/L, and write that number alone.

// below: answered compounds
| compound | pIC50 |
| --- | --- |
| Nc1ccn([C@@H]2CS[C@H](CO)O2)c(=O)n1 [LAMIVUDINE] | 4.00 |
| C=CCc1ccc2c(c1)-c1cc([C@@H](O)[C@H](C)O)ccc1Oc1ccc(CC=C)cc1-c1cc([C@@H](O)[C@H](C)O)ccc1O2 | 5.04 |

# ---- query compound ----
Value lookup for pIC50; key = COc1cc([C@H]2c3cc(O)c(OC)cc3C[C@@H](CO)[C@@H]2CO)ccc1O [ISOLARICIRESINOL]
4.90

---

test: Cytotoxicity against human HepG2(2.2.15) cells after 12 days by MTT assay; assay type: cell-based
Parameter: CC50 at 288 h. Scope: all listed entries.
// return numeric value only (unit: µM, not printed)

// below: answered compounds
| compound | observed_value |
| --- | --- |
| C=CCc1ccc(O)c(-c2cc(C=O)ccc2O)c1 | 200 |
| C=CCc1ccc(Oc2ccc(/C=C/C=O)cc2)c(O)c1 | 200 |
| C=CCc1ccc(O)c(-c2cc([C@@H](O)[C@@H](C)O)ccc2O)c1 | 200 |

# ---- query compound ----
Value lookup for CC50 at 288 h; key = C=CCc1ccc(Oc2cc(CC=C)ccc2O)cc1
196

---

Parameter: IC50. Scope: all listed entries.
system: Hepatitis B virus; assay: Antiviral activity against Hepatitis B virus infected in human HepG2.2.15 cells assessed as inhibition of HBsAg secretion after 12 days by ELISA; assay type: functional, organism-based; conditions: HepG2 2.2.15, 288 h
// return numeric value only (unit: µM, not printed)

// below: answered compounds
| compound | tested_system | IC50, µM |
| --- | --- | --- |
| C=CCc1ccc(Oc2cc(CC=C)ccc2O)cc1 | Hepatitis B virus | 10.3 |
| C=CCc1ccc(Oc2ccc(/C=C/C=O)cc2)c(O)c1 | Hepatitis B virus | 12.2 |
| Nc1ccn([C@@H]2CS[C@H](CO)O2)c(=O)n1 | Hepatitis B virus | 141 |

# ---- query compound ----
Value lookup for IC50; key = C=CCc1ccc(O)c(-c2cc(C=O)ccc2O)c1
109
